Molecular target: Tyrosine-protein kinase Blk (Homo sapiens) (UniProt P51451);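 also: mean percent inhibition of BLK kinase activity, from GSK PKIS kinase inhibitor set profiling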
Sequence (P51451 2-505 limits assumed): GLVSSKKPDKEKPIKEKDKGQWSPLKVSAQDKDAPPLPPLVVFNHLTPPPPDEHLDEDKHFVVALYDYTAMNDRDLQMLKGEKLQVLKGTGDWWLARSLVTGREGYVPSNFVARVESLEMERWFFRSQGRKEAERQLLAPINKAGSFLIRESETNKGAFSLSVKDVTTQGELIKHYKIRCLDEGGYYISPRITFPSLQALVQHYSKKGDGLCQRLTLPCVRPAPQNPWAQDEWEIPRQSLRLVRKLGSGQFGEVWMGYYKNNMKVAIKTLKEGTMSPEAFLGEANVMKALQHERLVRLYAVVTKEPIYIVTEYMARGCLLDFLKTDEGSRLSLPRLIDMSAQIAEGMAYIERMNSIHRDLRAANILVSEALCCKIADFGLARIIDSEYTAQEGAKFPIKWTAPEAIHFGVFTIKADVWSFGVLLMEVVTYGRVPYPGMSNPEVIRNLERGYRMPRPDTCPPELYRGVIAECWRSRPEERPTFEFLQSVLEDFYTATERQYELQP
Settings: at 1 µM

- structureString: "NC(=O)c1cccc(Nc2nccc(Nc3cccc4[nH]ncc34)n2)c1"
  inhibition: "66.3%"
- structureString: "CS(=O)(=O)CCNCc1ccc(-c2ccc3ncnc(Nc4ccc(OCc5cccc(F)c5)c(C(F)(F)F)c4)c3c2)o1"
  inhibition: "3.9%"
- structureString: "Nc1ncnc2occ(-c3ccc(NC(=O)Nc4cccc(C(F)(F)F)c4)cc3)c12"
  inhibition: "49.1%"
- structureString: "CCn1c(-c2nonc2N)nc2c(C#CC(C)(C)O)nc(CN3CCCC3)cc21"
  inhibition: "0.66%"
- structureString: "Cc1ccc(NC(=O)c2ccnc(N3CCCC3)c2)cc1-c1ccc(C(=O)NCC2CC2)cc1"
  inhibition: "-0.22%"
- structureString: "[O-][S+]1CCN(Cc2ccc(-c3ccc4ncnc(Nc5ccc(OCc6ccccc6)c(F)c5)c4c3)o2)CC1"
  inhibition: "5.97%"
- structureString: "O=C1NC(=O)C(c2cccc(Cl)c2)=C1Nc1ccc(O)c(Cl)c1"
  inhibition: "5.96%"
- structureString: "COc1cc2c(cc1Nc1nc(N3CCc4ccccc43)c3cc[nH]c3n1)N(C(=O)CN(C)C)CC2"
  inhibition: "4.28%"
- structureString: "CCn1c(-c2nonc2N)nc2ccncc21"
  inhibition: "2.01%"
- structureString: "N#Cc1c(NC(=O)c2cccc3ccccc23)sc2c1CCCC2"
  inhibition: "2.44%"
- structureString: "COc1ccc(-c2ccncc2)cc1C(N)=O"
  inhibition: "3.47%"

---

Molecular target: Serine/threonine-protein kinase MARK2 (Homo sapiens);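 also: mean percent inhibition of PAR-1Balpha kinase activity, reported from the GSK PKIS screen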
Settings: at 0.1 µM
The entries below are paired with their reported inhibition.

- compound: "Cc1cc(O)cc(C)c1/C=C/c1cncc(-c2nn[nH]n2)c1"
  inhibition (%): 0.37
- compound: "O=C1Nc2ccc(C(=O)c3ccco3)cc2C1=Cc1cc(Cl)c(O)c(Cl)c1"
  inhibition (%): 2.14
- compound: "Fc1cccc(COc2ccc(Nc3ncnc4cc(-c5ccc[nH]5)sc34)cc2Cl)c1"
  inhibition (%): -1.15
- compound: "COc1ccc(-c2nn3ncccc3c2-c2ccnc(Nc3ccc(Cl)c(C(F)(F)F)c3)n2)cc1"
  inhibition (%): -0.27
- compound: "CCN1CCC(CC(=O)Nc2n[nH]c3nc(-c4cccs4)c(Br)cc23)CC1"
  inhibition (%): 0.07
- compound: "O=C1NC(=O)C(c2ccc(Cl)cc2)=C1Nc1ccc(Cl)c(C(=O)O)c1"
  inhibition (%): -0.46
- compound: "CCn1c(-c2nonc2N)nc2c(N3CCCC3)nccc21"
  inhibition (%): 2.95
- compound: "CCCN1CCC(Oc2cc(Nc3nc(Nc4cccc(F)c4C(N)=O)c4cc[nH]c4n3)c(OC)cc2Cl)CC1"
  inhibition (%): -0.3
- compound: "O=C1NC(=O)C(c2cccc(Cl)c2)=C1Nc1ccc(O)c(Cl)c1"
  inhibition (%): 0.55
- compound: "COc1ccc2cc(-c3c(-c4ccncc4)nc(-c4ccc([S+](C)[O-])cc4)n3C)ccc2c1 (stereo not given)"
  inhibition (%): 0.3
- compound: "CCn1c(-c2nonc2N)nc2c(C#CC(C)(C)O)nc(CN3CCCC3)cc21"
  inhibition (%): 3.94
- compound: "CS(=O)(=O)Nc1ccc(N/C=C2\\C(=O)Nc3ccccc32)cc1"
  inhibition (%): 2.67
- compound: "Cn1cc(C=C2C(=O)Nc3cccnc32)c2ccccc21"
  inhibition (%): 1.17
- compound: "CCCN1CCC=C(c2ccc(Nc3nc(Nc4ccccc4C(N)=O)c4cc[nH]c4n3)c(C)c2)C1"
  inhibition (%): 1.68
- compound: "CC1=C(C(=O)Nc2ccc3[nH]ncc3c2)C(c2ccc3ccccc3c2)CC(=O)N1 (stereo not given)"
  inhibition (%): -0.71
- compound: "CC(=O)Nc1cccc(C#Cc2cncnc2Nc2ccc(OCc3cccc(F)c3)c(Cl)c2)n1"
  inhibition (%): 1.78
- compound: "Nc1nc(-c2ccc3c(c2)C(=Cc2cc(Br)c(O)c(Br)c2)C(=O)N3)cs1"
  inhibition (%): 0
- compound: "CS(=O)(=O)CCN(CC#N)Cc1ccc(-c2ccc3ncnc(Nc4ccc(OCc5cccc(F)c5)c(Cl)c4)c3c2)o1"
  inhibition (%): -0.92
- compound: "CN(C)c1cc2c(Nc3ccc4nc(Cc5ccccc5)[nH]c4c3)ncnc2cn1"
  inhibition (%): 0.6
- compound: "O=C1NC(=O)C(N2CCc3ccccc32)=C1c1ccc(Cl)cc1"
  inhibition (%): 0.05
- compound: "CS(=O)(=O)CCNCc1ccc(-c2ccc3ncnc(Nc4ccc(OCc5ccccc5)c(Cl)c4)c3c2)o1"
  inhibition (%): 0.91
- compound: "COc1cc2ncn(-c3cc(O[C@@H](C)c4ccccc4Cl)c(C(N)=O)s3)c2cc1OC"
  inhibition (%): 1.49
- compound: "Cc1nnc(-c2ccc(C)c(-c3ccc(C(=O)Nc4cccc(C#N)c4)cc3)c2)o1"
  inhibition (%): -1.11
- compound: "Cc1ccc(NC(=O)c2ccnc(N3CCCC3)c2)cc1-c1ccc(C(=O)NCC2CC2)cc1"
  inhibition (%): 0.13
- compound: "COc1cc2ncn(-c3cc(OCc4ccccc4Cl)c(C(N)=O)s3)c2cc1OC"
  inhibition (%): 0.69
- compound: "O=C1NC(=O)C(c2ccccc2Cl)=C1Nc1cccc(O)c1"
  inhibition (%): 1.47
- compound: "COc1cc(C=NNc2ncnc3c2cnn3-c2ccccc2)ccc1O"
  inhibition (%): -0.32
- compound: "Cc1cccc(-c2n[nH]cc2-c2ccc3ncccc3n2)n1"
  inhibition (%): -0.96
- compound: "NCc1ccc(-c2nc(-c3ccc(Cl)c(O)c3)c(-c3ccncc3)[nH]2)cc1"
  inhibition (%): -0.38
- compound: "COc1cccc(-n2ncc3c(N/N=C/c4cccc(F)c4)ncnc32)c1"
  inhibition (%): 0.05
- compound: "NC(=O)c1cccc(Nc2nccc(Nc3cccc4[nH]ncc34)n2)c1"
  inhibition (%): 0.92
- compound: "COc1ccc(COc2ccc(Cc3cnc(N)nc3N)cc2OC)cc1"
  inhibition (%): 1.26
- compound: "NS(=O)(=O)c1ccc(N/N=C2\\C(=O)Nc3ccc(C(=O)NCCc4c[nH]cn4)cc32)cc1"
  inhibition (%): 7.88
- compound: "COc1ccccc1Nc1ncc(-c2ccccc2)o1"
  inhibition (%): 0.41
- compound: "CC1=C(C(=O)Nc2ccc3[nH]ncc3c2)C(c2ccc(Cl)c(Cl)c2)CC(=O)N1 (stereo not given)"
  inhibition (%): -0.78
- compound: "NS(=O)(=O)c1cccc(-c2ccc3c(NC(=O)C4CC4)n[nH]c3c2)c1"
  inhibition (%): 0.51
- compound: "CCn1c(-c2nonc2N)nc2ccncc21"
  inhibition (%): -1.74
- compound: "c1cnn2ncc(-c3ccnc(Nc4ccc5c(c4)OCCO5)n3)c2c1"
  inhibition (%): 0.05
- compound: "CS(=O)(=O)CCNCc1ccc(-c2ccc3ncnc(Nc4ccc(OCc5cccc(F)c5)c(C(F)(F)F)c4)c3c2)o1"
  inhibition (%): 2.7
- compound: "Nc1ncnc2occ(-c3ccc(NC(=O)Nc4cccc(C(F)(F)F)c4)cc3)c12"
  inhibition (%): 1.27

---

Biological target: Ephrin type-A receptor 3 (Homo sapiens);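 also: values are mean inhibition of EPHA3, from the GSK PKIS dataset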
Conditions: at 0.1 µM
The entries below are paired with their reported inhibition.
quantityMeasured: inhibition (%)

- structureString: "O=C1NC(=O)C(c2cccc(Cl)c2)=C1Nc1ccc(O)c(Cl)c1"
  valueReported: 0.53
- structureString: "c1cnn2ncc(-c3ccnc(Nc4ccc5c(c4)OCCO5)n3)c2c1"
  valueReported: 7.54
- structureString: "NS(=O)(=O)c1ccc(N/N=C2\\C(=O)Nc3ccc(C(=O)NCCc4c[nH]cn4)cc32)cc1"
  valueReported: 7.18
- structureString: "COc1ccc(-c2nn3ncccc3c2-c2ccnc(Nc3ccc(Cl)c(C(F)(F)F)c3)n2)cc1"
  valueReported: 3.2
- structureString: "CCn1c(-c2nonc2N)nc2cncc(C(=O)N3CC[C@H](N)C3)c21"
  valueReported: 4.99
- structureString: "CN1CCC(C(=O)Nc2n[nH]c3nnc(-c4ccccc4)cc23)CC1"
  valueReported: 4.03
- structureString: "NCc1ccc(-c2nc(-c3ccc(Cl)c(O)c3)c(-c3ccncc3)[nH]2)cc1"
  valueReported: 3.13
- structureString: "COC(=O)Nc1nc2cc(Oc3cccc(NC(=O)Nc4cc(C(F)(F)F)ccc4F)c3)ccc2[nH]1"
  valueReported: 0.48
- structureString: "Cc1ccc(C(=O)NC2CCCCC2)cc1-c1ccc(C(=O)NCC2CC2)cc1"
  valueReported: 5.5
- structureString: "CCc1cccc(NC(=O)Nc2ccc(Oc3ccc4nc(NC(=O)OC)[nH]c4c3)cc2)c1"
  valueReported: 13.9
- structureString: "CCn1c(-c2nonc2N)nc2ccncc21"
  valueReported: 0.73
- structureString: "CCn1c(-c2nonc2N)nc2cncc(C(=O)N3CCNCC3)c21"
  valueReported: 3.57
- structureString: "CS(=O)(=O)CCN(CC#N)Cc1ccc(-c2ccc3ncnc(Nc4ccc(OCc5cccc(F)c5)c(Cl)c4)c3c2)o1"
  valueReported: -2.74
- structureString: "CS(=O)(=O)Nc1ccc(N/C=C2\\C(=O)Nc3ccccc32)cc1"
  valueReported: -5.95
- structureString: "NS(=O)(=O)c1cccc(-c2ccc3c(NC(=O)C4CC4)n[nH]c3c2)c1"
  valueReported: -5.8
- structureString: "Cc1nn(C)c2cc(N(C)c3ccnc(Nc4cccc(S(N)(=O)=O)c4)n3)ccc12"
  valueReported: 6.82
- structureString: "CC(=O)Nc1cccc(C#Cc2cncnc2Nc2ccc(OCc3cccc(F)c3)c(Cl)c2)n1"
  valueReported: 0.44
- structureString: "CCn1c(-c2nonc2N)nc2c(C#CC(C)(C)O)nc(OC[C@@H](N)c3ccccc3)cc21"
  valueReported: -1.62
- structureString: "COc1cccc(-n2ncc3c(N/N=C/c4cccc(F)c4)ncnc32)c1"
  valueReported: -1.03
- structureString: "Nc1ncnc2occ(-c3ccc(NC(=O)Nc4cc(C(F)(F)F)cc(C(F)(F)F)c4)cc3)c12"
  valueReported: 6.5
